Reference source for all entries: paper PMC10397247

STUDY SYSTEM: T1, 4H891-AA
T1 chain: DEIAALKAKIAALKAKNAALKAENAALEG
METHOD: two-hybrid library CCmax;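 note: natural log of median RNA to DNA barcode read ratio; higher means stronger binding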
CONDITION NOTES: mean of both orientations
QUANTITY KIND: interaction score
No unit in the answer, only the number.

- BINDER: "DKNAALEAEIAALEAKNAALKAEIAALKG [4H3130-AA]"
  interaction score: -1.99
- BINDER: "DENAALKAKIAALKAEIAALEAKNAALKG [4H1864-AA]"
  interaction score: -0.897
- BINDER: "DEIAALKAENAALKAKIAALKAEIAALEG [4H745-AA]"
  interaction score: -1.51
- BINDER: "DEIAALEAKNAALKAKIAALEAKIAALEG [4H485-AA]"
  interaction score: -2.05
- BINDER: "DKIAALEAEIAALKAKNAALEAEIAALKG [4H2162-AA]"
  interaction score: -1.78

Entry under review: DKIAALEAENAALKAEIAALKAKIAALEG [4H2253-AA] . Reported interaction score?
-1.7
